src = the nanobody polyreactivity screen of Harvey et al. (2022)

- protocol-summary: yeast display, Sf9 membrane polyspecificity reagent, FACS + sequencing; frameworks hold sequencing errors
assay-endpoint: polyreactivity (PSR sort gate)

[[record]]
sequence_chain = "QVQLVESGGGLVQAGGSLRLSCAASGSIFAVYAMGWYRQAPGKERELVAVITRSGGSTYYADSVKGRFTISRDNAKNTVYLQMNSLKPEDTAVYYCAARTGYGYTRYEYWGQGTQVTVSS"
assay_endpoint = "polyreactivity (PSR sort gate)"
result = "high polyreactivity"

[[record]]
sequence_chain = "QVQLVESGGGLVQAGGSLRLSCAASGSIFNQYAMGWYRQAPGKERELVAAISSGSTYYADSVKGRFIISRDNAETTVYLQMYSLKPEDTAVYYCNAYYVNYVSNYESWGQGTQVTVSS"
assay_endpoint = "polyreactivity (PSR sort gate)"
result = "high polyreactivity"

[[record]]
sequence_chain = "QVQLVESGGGLVQAGGSLRLMCAASGSTFRRNAMGWYRQAPGKERELVASISWRAGSTYYADSVKGRFTISRDNAKNTVYLQMNSLKQEDTAVYYCAASYYYYPSWEYEYWGQGTQVTVSS"
assay_endpoint = "polyreactivity (PSR sort gate)"
result = "high polyreactivity"

